Collected koff values appear next to each entry.
Target: T1, Human IL-18Rα extracellular domain (human, UniProt Q13478 22-329, biotinylated (site not stated))
T1 construct: also called IL-18 receptor
T1 sequence: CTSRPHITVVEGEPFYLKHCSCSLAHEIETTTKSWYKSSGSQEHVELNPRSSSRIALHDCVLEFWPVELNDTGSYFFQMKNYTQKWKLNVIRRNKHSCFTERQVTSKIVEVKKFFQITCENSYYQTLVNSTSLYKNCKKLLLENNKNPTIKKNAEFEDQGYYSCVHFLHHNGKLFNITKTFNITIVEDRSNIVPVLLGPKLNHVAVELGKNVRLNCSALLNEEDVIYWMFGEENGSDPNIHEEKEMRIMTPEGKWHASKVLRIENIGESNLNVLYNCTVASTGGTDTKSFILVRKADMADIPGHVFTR
Assay: SPR, Biacore 8K, 37 C, biotinylated target on SA chip, single-cycle kinetics
Procedure: SPR experiments were performed using a Biacore 8K (Cytiva) at a temperature of 37° C. Biotinylated human or mouse IL-18Rα and IL-18BP were immobilized onto Biacore streptavidin sensor chip (Series S Sensor Chip SA, Cytiva) to yield an Rmax ≤50 RU. […] Interactions were evaluated using the single-cycle kinetics method and analyzed with the Biacore 8K evaluation software and fit to a 1:1 binding model. […]
Returns: string containing the number followed by the unit.

Some binders with recorded koff:
binder="Human IL-18 A162C/I185C (ligand, Made in mammalian cells) YFGKLESKLSVIRNLNDQVLFIDQGNRPLFEDMTDSDSRDNAPRTIFIISMYKDSQPRGMAVTISVKSEKISTLSSENKIISFKEMNPPDNIKDTKSDIIFFQRSVPGHDNKMQFESSSYEGYFLCSEKERDLFKLILKKEDELGDRSCMFTVQNED" result="0.212 s⁻¹"
binder="Human IL-18 L174C (ligand, Made in mammalian cells) YFGKLESKLSVIRNLNDQVLFIDQGNRPLFEDMTDSDSRDNAPRTIFIISMYKDSQPRGMAVTISVKSEKISTLSCENKIISFKEMNPPDNIKDTKSDIIFFQRSVPGHDNKMQFESSSYEGYFLASEKERDLFKLICKKEDELGDRSIMFTVQNED" result="0.011 s⁻¹"

Field: next binder
Enquiry: I would be grateful if you could share the reported koff for Human IL-18 I107C/N123C (ligand, Made in mammalian cells) YFGKLESKLSVIRNLNDQVLFIDQGNRPLFEDMTDSDSRDNAPRTIFIISMYKDSQPRGMAVTISVKSEKCSTLSSENKIISFKEMCPPDNIKDTKSDIIFFQRSVPGHDNKMQFESSSYEGYFLASEKERDLFKLILKKEDELGDRSIMFTVQNED .
Return: 0.031 s⁻¹
